test system: MS2 coat protein; assay: apparent KD of MS2 coat protein; designed switch direction (-1 OFF switch, 1 ON switch): 1; higher = weaker reporter binding; details: input ligand: FMN 200 uM
apparent KD of MS2 coat protein for assorted sequences
Parameter: apparent KD of MS2 coat protein (nM)

* AUUAUUUAUGCAGGAUAUGAUUAACAUGAGGAUCACCCAUGUGGUGUUGUGAGUAAGGAGAGUGAUCAGAAGGGCAUUUUAUUU [JMF's solution 50] (Eterna round: R96, puzzle: Same State NG 2) | 1560
* AUAGUUGCCGAAGGAUAUGAUGAGGAUCACCCAUCAGAAGGUUGGCUAUUGGGUGGACAUGAGGAUCACCCAUGUCCUUUGGUA (Eterna round: R96, puzzle: Same State NG 1) | 95.1
* GGCGAACAGGCUAACAUGAGGAUCACCCAUGUGGACUUCGUGUAGGAUAUCGGGAAGGAGGAAACCGAGAAGGGCGAAGAAGCC [AK SSNG3-V2-49.1] (Eterna round: R96, puzzle: Same State NG 3) | 55.2
* GUUAGGAAUCUAGCAAACAUGAGGAUCACCCAUGUUAGUGGGAAGGAUAUGGUACAGAAACUGUACCAGAAGGUCUUAUUAAUU [Omei SS(NG) 3 AV2] (Eterna round: R96, puzzle: Same State NG 3) | 58.3
* GGUAUUGACACAGGAUAUGCUUACGAAACGUAAGCAGAAGGGUGAACAUGAGGAUCACCCAUGUAUGUACCAGGGCGUGAGCCC [JL SSNG1 1.74] (Eterna round: R96, puzzle: Same State NG 1) | 169

* * *

tested on: MS2 coat protein; experiment: apparent KD of MS2 coat protein; designed switch direction (-1 OFF switch, 1 ON switch): 1; higher = weaker reporter binding; settings: Eterna round: R95; input ligand: none
apparent KD of MS2 coat protein for assorted sequences
Parameter: apparent KD of MS2 coat protein (nM)

• UGGAUCUAGGCUUGCCUGGGUCCAUGCUGACAUGAGGAUCACCCAUGUGCAUCCUACAAGCUUUUUGCUUGUCUGUC (puzzle: Sensor for hsa-mir-208a) = 51
• UUUAGUUGCGGGCAGGAUAUGUAUUAAAAUACAUGAGGAUCACCCAUGUGCGGGUAUAACACCCGGCAGAAGGGCCAAUCGCGAC [Laonerce - 3] (puzzle: Same State 2) = 296
• AUUAAACAUGAGGAUCACCCAUGUCUACAAAGUCGAGGAUAUGGGCAAAUAAAAUAAGAACCAGAAGGCGAAUAAU [salish99_ss1_r3_072] (puzzle: Same State 1) = 533
• CAAGCUUGGGUCUUCCCGCUCGUCUACAAACAUGAGGAUCACCCAUGUAUACUCUUCGCAUCAAUUCUAUCUCUUGG [Onraenbi] (puzzle: Sensor for hsa-mir-208a) = 272
• AUAAAACAUGAGGAUCACCCAUGUGGCGCUGACACAGGAUAUCAUGCGGAACUGGACGUAUGAGAAGGGUGAUGCG [Diateedza] (puzzle: Same State 1) = 419

* * *

system: MS2 coat protein; experiment: apparent KD of MS2 coat protein; designed switch direction (-1 OFF switch, 1 ON switch): -1; higher = weaker reporter binding; conditions: input ligand: FMN 200 uM
Parameter: apparent KD of MS2 coat protein (nM)

- ACAGAGUCAGGAUAUCGCCGUGGCAGUCUCAACCAGCGGAACGAGAAGGGACAUGAGGAUCACCCAUGUCUGUU [Eternabot (Original) Solution 36] (Eterna round: R97, puzzle: Exclusion 4): 20.7
- UUAAAUCAUGUAGGAUAUGCGUGGCGAAGCUAUGCAGAAGGACAUGAGGAUCACCCAUGUGCUAGCGUCCGCGUACGGAUGCAA [JL ENG1 1.21] (Eterna round: R96, puzzle: Exclusion NG 1): 131
- UACGGUCCUAACAUGAGGAUCACCCAUGUAACAAAAGAAACCUAGGAUAUCCGCGCCGGAAGGAAGGAGAAGGAGGGCGUGGCA [Ededti] (Eterna round: R96, puzzle: Exclusion NG 3): 50.7
- UUAUUAAUUAAUAUUAUAAGAUCACAUGAGGAUCACCCAUGUCAGGAUAUCAGCUCGAUUAGAGCUGAGAAGGGACAAAUAAUA [ExNG3/15-B1] (Eterna round: R96, puzzle: Exclusion NG 3): 1450
- GAUCAUGCAGGAUAUACAUGAACCAUGAAAACAUGGUUUUCACAUGAGGAUCACCCAUGUAGAAGGGCAUGAUC [Omei Ex2 A7] (Eterna round: R97, puzzle: Exclusion 2): 183
- UUGCGCUGAGGAUAUAUAACCGAUGACAUGAGGAUCACCCAUGUGGAUACAAGGGACUGAAUAGAAGGUAGCCAGA [Eternabot (L1) Solution 69] (Eterna round: R97, puzzle: Exclusion 5): 42.4
- AGUAAGCUAGGAUAUGCUUUGGGAAAGCAUUCCUUCGAUAAACUUGAGGAUCACCCAAGUAGAAGGAGCUAAAU [jl-ex2.4.49 ViennaUCT mod] (Eterna round: R97, puzzle: Exclusion 2): 17.5
- ACAUGUGUUGUAGGAUAUAGUGGACAUGAGGAUCACCCAUGUUGAUUCAUGUCUAUGGAAACGUACUAGAAGGACGACAAUAUG [Ex NG2 #18] (Eterna round: R96, puzzle: Exclusion NG 2): 806
- CUGUGCACGCUGCGAUCCUACAUGAGGAUCACCCAUGUGGUCUGGUGGCGUGGGUCACCGGACUUGGCUCGUCUUGG [salish99_S_TOV1_R5_078] (Eterna round: R97, puzzle: Sensor, turn-off variant 1): 129
- UAUUAACAAGCGAGAUCCUACAUGAGGAUCACCCAUGUGCUCGUCUUAUAAGGUACUGUGACGAAAGUCACGGUACC [Eli 91 v37] (Eterna round: R97, puzzle: Sensor, turn-off variant 1): 19.5
- AUUUAUGGAGGAUAUACUUGAGGAUCACCCAAGUGGAGUCCCGUUUGGGCGGUAAAUAGUAGAAGGCCGUCCUA [jl-ex3-4.47 ViennaUCT mod] (Eterna round: R97, puzzle: Exclusion 3): 15.7

* * *

test system: MS2 coat protein; test: apparent KD of MS2 coat protein; designed switch direction (-1 OFF switch, 1 ON switch): 1; higher = weaker reporter binding; conditions: input ligand: FMN 200 uM
Please note: 1 applies when apparent KD of MS2 coat protein is 100 nM or greater, and -1 applies otherwise.

- GUAGCAUACCGAGGAUAUUCAUACCGGAAACGGACAUGAGGAUCACCCAUGUGGCGAAAGCCUUGGGAGAAGGCGGAAUGCUAC [Xeonanis - 20 Mod75] (Eterna round: R96, puzzle: Same State NG 2): -1
- AUUUUUAAUGCAGGAUAUGAUUAACAUGAGGAUCACCCAUGUGGUGUUGUGAGUAAGGAGAGUGAUCAGAAGGGCAUUUUUUCA [SS-NG2-LRO01] (Eterna round: R96, puzzle: Same State NG 2): 1
- UUAAUGAUGUAAGGAUAUACAUGAGGAAUUCUCGUAGAAGGUACAUGACAUGAGGAUCACCCAUGUAUCGCUCCGUAGAGCGUA [JL SSNG1 1.12] (Eterna round: R96, puzzle: Same State NG 1): 1
- GGAGCCGGCACCGAGGAUAUUCAUAUUAAAACAUGAGGAUCACCCAUGUAGGCCAGAAGGCCUUGGGAGAAGGCGGACCGGCUCG [Xeonanis - 4] (Eterna round: R96, puzzle: Same State 2): -1
- GUUACAUGAGGAUCACCCAUGUAUGUGUGGGAGUAAGUGUCUUAGGAUAUCUAGUAUUUAAUCUAAGAGAAGGAAGAUUGUUGU [JMF's solution 65] (Eterna round: R96, puzzle: Same State NG 3): 1
- GGCCAGAGUCAAGGAUAUGCUACCGUUUCGGUAGCAGAAGGUGAUCACAUGAGGAUCACCCAUGUAUACUGCGAGAGUAGGGCC [JL SSNG1 3.66] (Eterna round: R96, puzzle: Same State NG 1): -1
- UUAAUAAUGUUAGGAUAUACAUGAGGAAUCCUCGUAGAAGGAACAUGACAUGAGGAUCACCCAUGUAGCGCUCCGAAGAGCGCA [Mat - Same State NG 1 - JL mod - D46] (Eterna round: R96, puzzle: Same State NG 1): 1
- CUGAGAUGUCAAGGAUAUCACGUCGAUUAGACGUGAGAAGGUGAUCUGCACAUGAGGAUCACCCAUGUGUUACAUGGAACUCAG [Brourd's SSNG1/1-A2 mod 11] (Eterna round: R96, puzzle: Same State NG 1): 1
- AGAUGUUAAUUAGGAUAUGGGCACAUGAGGAUCACCCAUGUAACGUAGAUACGAUGUGGUCAAGUCUAGAAGGGAUAGCUAACA [SameState NG2 #77] (Eterna round: R96, puzzle: Same State NG 2): -1

* * *

tested on: MS2 coat protein; test: apparent KD of MS2 coat protein; designed switch direction (-1 OFF switch, 1 ON switch): -1; higher = weaker reporter binding; conditions: input ligand: none
Parameter: apparent KD of MS2 coat protein (nM)

- GUCACCUCGGUGACAAAGCACAUGAGGAUCACCCAUGUAUGUGCUUGGAAACAAGCAUUUUGUUCGUCUUAUAAGAA [same principle] (Eterna round: R96, puzzle: Sensor v2, turn-off variant): 21.6
- CGCUGGACAGGAUAUGUUCUUGGGCACUUGAGGAUCACCCAAGUCAUCGGGACAUCAGGCACAGAAGGGUUGUUGG [salish99_ex5_r4_028] (Eterna round: R97, puzzle: Exclusion 5): 27.1
- AAUUUACAUGAGGAUCACCCAUGUGAGGAUAUAUGUUUUAAUUUUUUUUUUUUUUUACAUAGAAGGCGCGUGAU [JR_Exc1_Sub046] (Eterna round: R97, puzzle: Exclusion 1): 58.5
- UAAAAUCUAGGAUAUACAUGAGGAUCACCCAUGUUGCUCCCAGCUCGUGACCUCCAAUGUAGAAGGAGAACGAU [EX3 A.15] (Eterna round: R97, puzzle: Exclusion 3): 20.1
- AGCCUGUAAGUAGGAUAUAUGAUCAGGAAUGAAAUAGAAGGGCUUAGUGGACAUGAGGAUCACCCAUGUCAAUGGGUUCAUGCA [Edria] (Eterna round: R96, puzzle: Exclusion NG 1): 22.5
- ACUUUUAGUGGUCAAACUCACAUGAGGAUCACCCAUGUUUACAGGCUUAGGUGCUUGUCUUAUACUAAGGUUUACCG [Eternabot (L1) Solution 44] (Eterna round: R97, puzzle: Sensor, turn-off variant 1): 122
- UACAUGAGGAUCACCCAUGUUUUGUCGUGUAUGGUAUUUAUCUAGGAUAUCAUUCUAUUUAUUUAUGAGAAGGAGAAUAUUAAU [JMF's solution 98] (Eterna round: R96, puzzle: Exclusion NG 3): 29.7
- AGUCAGGCGGUAGGAUAUCCAUAUCGAGUGACCCUUUCAUAACAUGAGGAUCACCCAUGUCGGUGGGAGAAGGGCCGUACGGCG [JL ViennaUCT Atra mod 4] (Eterna round: R96, puzzle: Exclusion NG 2): 103
- GCGGAGUCGAUCGUGAGAUCGGAGACAUGAGGAUCACCCAUGUAGGAUAUCGAUUGCUUUGCAGUCGAGAAGGGCGUGCUCCGC [JL denovo 18] (Eterna round: R96, puzzle: Exclusion NG 3): 22.9
